method: APR_HepG2_MitoMass_72hr: Apredica 72-hour HepG2 Assay for Mitochondrial Mass (AID 2282924);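 also: MitoTracker Red CMXRos stain intensity per cell imaged as mitochondrial mass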
studyConditions: high-content imaging, actives raise or lower the signal
Activity calls are given as the source filed them. The calls were made as follows: active = hit-call score of the fitted dose curve at least 0.9, where 1 is the maximum; inactive = score below 0.9.
Outcome codes: active, inactive

- O=C(O)C(F)(F)C(F)(F)C(F)(F)C(F)(F)C(F)(F)C(F)(F)F: active
- Cc1ccccc1N: inactive
- CC(C)(C)CC(C)(C)c1ccc(O)cc1: inactive
- Oc1cccc2cccnc12: active
- CC(C)(c1ccccc1)c1ccc(O)c(C(C)(C)c2ccccc2)c1: active
- Cn1sc(Cl)cc1=O: active
- O=C(O)C(F)(F)C(F)(F)C(F)(F)C(F)(F)C(F)(F)C(F)(F)C(F)(F)C(F)(F)C(F)(F)C(F)(F)F: active
- NC(=O)O: inactive
- CCC(C)(C)c1ccc(O)c(C(C)(C)CC)c1: active
- COc1cc(-c2ccc(N)c(OC)c2)ccc1N: inactive
- CC(C)(C)c1cc(O)ccc1O: active
- CCN1CCC2(CC1)COc1cc3c(cc12)N(C(=O)c1ccc(-c2ccc(-c4nnc(C)o4)cc2C)cc1)CC3: active
- C=C(C)C(=O)[O][Sn]([CH2]CCC)([CH2]CCC)[CH2]CCC: active
- CCC(=O)C(CC(C)N(C)C)(c1ccccc1)c1ccccc1 (stereo not given): inactive
- CCCCCCCCc1ccc(O)cc1: active

###

subjectOfTest: Ratio of Nucleoli Translocation and Cytoplasm, AR (gene 367) (UniProt P10275)
Sequence (P10275 whole entry, looked up): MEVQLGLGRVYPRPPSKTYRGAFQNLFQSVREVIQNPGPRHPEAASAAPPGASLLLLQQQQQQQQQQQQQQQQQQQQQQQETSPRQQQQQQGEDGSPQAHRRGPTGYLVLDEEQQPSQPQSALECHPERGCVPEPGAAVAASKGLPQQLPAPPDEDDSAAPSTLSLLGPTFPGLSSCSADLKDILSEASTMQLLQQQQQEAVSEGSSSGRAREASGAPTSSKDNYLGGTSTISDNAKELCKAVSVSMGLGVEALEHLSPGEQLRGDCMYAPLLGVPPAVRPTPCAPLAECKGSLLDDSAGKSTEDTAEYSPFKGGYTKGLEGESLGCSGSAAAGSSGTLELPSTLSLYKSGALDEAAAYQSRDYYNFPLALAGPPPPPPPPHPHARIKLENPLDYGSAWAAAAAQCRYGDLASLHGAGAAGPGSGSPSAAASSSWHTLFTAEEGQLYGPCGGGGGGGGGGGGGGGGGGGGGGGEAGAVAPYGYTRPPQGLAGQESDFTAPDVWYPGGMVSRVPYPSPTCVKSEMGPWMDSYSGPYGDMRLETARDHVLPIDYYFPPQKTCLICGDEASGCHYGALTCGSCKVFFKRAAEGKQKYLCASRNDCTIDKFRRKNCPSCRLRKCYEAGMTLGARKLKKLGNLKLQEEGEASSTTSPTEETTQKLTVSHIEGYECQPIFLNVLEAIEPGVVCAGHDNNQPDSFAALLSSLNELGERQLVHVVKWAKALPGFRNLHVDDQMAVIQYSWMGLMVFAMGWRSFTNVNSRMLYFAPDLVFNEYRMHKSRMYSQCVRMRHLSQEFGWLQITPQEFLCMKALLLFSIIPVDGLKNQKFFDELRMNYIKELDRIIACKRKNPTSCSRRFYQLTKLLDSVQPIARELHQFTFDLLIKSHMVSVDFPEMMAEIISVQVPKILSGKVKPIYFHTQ
method: UPITT_HCI_U2OS_AR_TIF2_Nucleoli_Cytoplasm_Ratio_Agonist: University of Pittsburgh U2OS Androgen Receptor-Transcriptional Intermediary Factor 2 (AR-TIF2) Agonism High Content Imaging Assay for Ratio of Nucleoli Translocation and Cytoplasm (AID 2284000);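 also: hits raise the red nucleolar to cytoplasm ratio above vehicle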
Results filed as inconclusive are left out. Activity calls are given as the source filed them. The calls were made as follows: active = hit-call score of the fitted dose curve at least 0.9, where 1 is the maximum; inconclusive = response in the unintended direction; inactive = score below 0.9.
Outcome codes: Yes = active, No = inactive

* Cc1ccccc1C(=O)Nc1cccc(OC(C)C)c1 | No
* CCC(=O)C(CC(C)N(C)C)(c1ccccc1)c1ccccc1 (stereo not drawn) | No
* CC(C)(c1ccc(OCC2CO2)cc1)c1ccc(OCC2CO2)cc1 (stereo not drawn) | No
* C[C@H]1CCCC(=O)CCC/C=C/c2cc(O)cc(O)c2C(=O)O1 | Yes
* c1cc[c]([Hg][c]2ccccc2)cc1 | No
* CC(C)c1cccc(C(C)C)c1O | No
* CCOP(=S)(OCC)Oc1nc(Cl)c(Cl)cc1Cl | No
* CC(=O)[O][Hg][c]1ccccc1 | No
* COP(=O)(OC)O/C(=C\Cl)c1cc(Cl)c(Cl)cc1Cl | Yes
* C=CCc1ccc(OC)cc1 | No
* CCSC(C)CC1CC(=O)C(C(CC)=NOC/C=C/Cl)=C(O)C1 (stereo not drawn) | No
* Cl/C=C\C[N+]12CN3CN(CN(C3)C1)C2 | No
* O=[N+]([O-])c1ccc(O)c([N+](=O)[O-])c1 | No

###

method: BSK_4H_Eotaxin3: BioMAP Diversity Plus: 4H Assay for Eotaxin 3 Biomarker Activity (AID 2283000);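 as to Outcome: CCL26 protein level quantified by ELISA in parallel with SRB cytotoxicity check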
studyConditions: primary human endothelial cells (HUVEC); actives raise or lower the signal
Activity calls are given as the source filed them. Rule for the calls: active = hit-call score of the fitted dose curve at least 0.9, where 1 is the maximum; inactive = score below 0.9.
Outcome codes: active, inactive

* OCc1ccco1 | inactive
* COc1cc(OC)nc(NC(=O)NS(=O)(=O)c2ncccc2C(=O)N(C)C)n1 | inactive
* O=Cc1cccc(Oc2ccccc2)c1 | inactive
* COP(=S)(OC)Oc1c(Cl)cc(C)cc1Cl | active
* COC(=O)Cc1ccccc1 | inactive
* C(=NC1CCCCC1)=NC1CCCCC1 | active
* CCCCCCCCC(=O)NCc1ccc(O)c(OC)c1 | inactive
* ClC1(Cl)C2(Cl)C3(Cl)C4(Cl)C(Cl)(Cl)C5(Cl)C3(Cl)C1(Cl)C5(Cl)C24Cl (centres undefined) | inactive
* CC(=O)[O][Hg][c]1ccccc1 | active
* NC(=S)Nc1ccccc1 | inactive
* NC(=O)O | inactive
* Nc1ccc(-c2ccc(N)c(Cl)c2)cc1Cl | active
* ClC1=C(Cl)[C@]2(Cl)[C@H]3[C@H]([C@H]4C=C[C@H]3C4)[C@@]1(Cl)C2(Cl)Cl | active
* Nc1cccc2ccccc12 | inactive
